- Target Or System: Sodium channel protein type 10 subunit alpha (Mus musculus)
- Sequence (Q6QIY3 whole entry): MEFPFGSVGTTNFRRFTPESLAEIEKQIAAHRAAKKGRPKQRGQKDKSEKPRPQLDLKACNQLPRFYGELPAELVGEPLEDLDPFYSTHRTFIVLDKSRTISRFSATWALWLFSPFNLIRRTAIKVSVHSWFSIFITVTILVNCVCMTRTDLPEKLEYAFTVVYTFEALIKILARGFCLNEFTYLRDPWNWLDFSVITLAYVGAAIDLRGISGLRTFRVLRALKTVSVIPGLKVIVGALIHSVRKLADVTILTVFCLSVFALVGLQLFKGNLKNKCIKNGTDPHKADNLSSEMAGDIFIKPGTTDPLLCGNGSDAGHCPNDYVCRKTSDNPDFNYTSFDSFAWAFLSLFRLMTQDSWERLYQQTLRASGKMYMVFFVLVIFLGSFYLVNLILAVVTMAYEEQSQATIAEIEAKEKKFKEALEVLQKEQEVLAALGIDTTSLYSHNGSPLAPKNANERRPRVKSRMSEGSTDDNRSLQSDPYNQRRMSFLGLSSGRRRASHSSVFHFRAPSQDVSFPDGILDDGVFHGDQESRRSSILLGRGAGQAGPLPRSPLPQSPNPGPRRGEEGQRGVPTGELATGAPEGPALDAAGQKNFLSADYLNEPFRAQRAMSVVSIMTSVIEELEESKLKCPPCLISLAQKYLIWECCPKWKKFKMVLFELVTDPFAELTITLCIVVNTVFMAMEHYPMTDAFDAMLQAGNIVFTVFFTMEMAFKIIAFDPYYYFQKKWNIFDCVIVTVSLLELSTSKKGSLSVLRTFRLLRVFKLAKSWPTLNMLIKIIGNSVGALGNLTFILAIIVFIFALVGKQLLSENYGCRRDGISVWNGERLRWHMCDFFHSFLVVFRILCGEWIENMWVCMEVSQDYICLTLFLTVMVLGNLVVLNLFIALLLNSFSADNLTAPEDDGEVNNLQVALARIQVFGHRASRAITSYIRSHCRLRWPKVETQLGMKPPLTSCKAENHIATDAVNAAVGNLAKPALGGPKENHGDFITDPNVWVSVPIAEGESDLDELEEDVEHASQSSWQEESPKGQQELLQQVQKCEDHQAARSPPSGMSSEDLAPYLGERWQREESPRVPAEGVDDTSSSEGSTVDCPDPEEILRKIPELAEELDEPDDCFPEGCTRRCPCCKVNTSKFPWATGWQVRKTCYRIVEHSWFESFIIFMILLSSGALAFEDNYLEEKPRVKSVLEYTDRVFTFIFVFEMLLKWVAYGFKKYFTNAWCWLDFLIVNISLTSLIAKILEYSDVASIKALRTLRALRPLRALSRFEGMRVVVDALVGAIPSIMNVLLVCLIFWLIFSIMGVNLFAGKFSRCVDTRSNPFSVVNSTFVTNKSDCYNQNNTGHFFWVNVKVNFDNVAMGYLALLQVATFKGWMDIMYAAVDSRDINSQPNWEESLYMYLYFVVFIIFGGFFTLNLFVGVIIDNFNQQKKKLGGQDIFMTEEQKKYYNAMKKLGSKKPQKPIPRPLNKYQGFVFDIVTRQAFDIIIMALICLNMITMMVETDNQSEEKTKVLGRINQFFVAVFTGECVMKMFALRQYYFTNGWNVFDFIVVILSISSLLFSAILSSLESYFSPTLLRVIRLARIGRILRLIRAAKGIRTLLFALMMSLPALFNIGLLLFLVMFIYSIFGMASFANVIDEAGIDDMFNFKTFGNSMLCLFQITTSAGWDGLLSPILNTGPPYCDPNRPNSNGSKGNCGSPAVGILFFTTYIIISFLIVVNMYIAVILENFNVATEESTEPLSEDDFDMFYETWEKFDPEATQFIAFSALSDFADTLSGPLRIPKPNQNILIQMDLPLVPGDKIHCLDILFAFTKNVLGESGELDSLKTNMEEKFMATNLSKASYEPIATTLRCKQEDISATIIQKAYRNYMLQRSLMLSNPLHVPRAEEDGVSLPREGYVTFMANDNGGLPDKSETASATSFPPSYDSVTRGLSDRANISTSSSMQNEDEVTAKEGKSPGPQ
- Run Description: Inhibition of mouse NaV1.8 by isotopic flux assay
pIC50: −log10 of the molar value.
Hi all, reminder that labels come from pIC50, split as I: < 6; II: ≥ 6 and < 7; III: ≥ 7

Compound Smiles	Answer Label
Cc1cc(C)cc(NC(=O)c2cnc(-c3ccc(OC(F)(F)F)cc3)o2)c1	II
Cc1cc(C)cc(NC(=O)c2ccnc(-c3ccc(OC(F)(F)F)cc3)c2)c1	I
O=C(NCc1ccccc1N1CCOCC1)c1cncc(-c2ccc(Cl)cc2)c1	III
Cc1cc(C)cc(NC(=O)c2cncc(-c3ccc(OC(F)(F)F)cc3)c2)c1	II
O=C(NCc1ccccc1N1CCCCC1)c1cncc(-c2ccc(Cl)cc2)c1	III
Cc1cc(C)cc(NC(=O)c2cncc(-c3ccc(C#N)cc3)c2)c1	II
O=C(NCc1cccnc1)c1cncc(-c2ccc(Cl)cc2)c1	I
O=C(NCc1cccnc1N1CCCCC1)c1cncc(-c2ccc(Cl)cc2)c1	III
O=C(NCc1ccccc1)c1cncc(-c2ccc(Cl)cc2)c1	II
Cc1ncccc1CNC(=O)c1cncc(-c2ccc(Cl)cc2)c1	I
Cc1cc(C)cc(NC(=O)c2cncc(-c3ccc(OC(F)(F)F)cc3)n2)c1	III
Cc1cc(C)cc(NC(=O)c2cncc(-c3ccc(F)cc3)c2)c1	I
Cc1ccccc1CNC(=O)c1cncc(-c2ccc(Cl)cc2)c1	III
Cc1cc(C)cc(NC(=O)c2csc(-c3ccc(OC(F)(F)F)cc3)n2)c1	II
Cc1cc(C)cc(NC(=O)c2ccc(-c3ccc(OC(F)(F)F)cc3)o2)c1	II
Cc1cc(C)cc(NC(=O)c2nsc(-c3ccc(OC(F)(F)F)cc3)n2)c1	II
Cc1cc(C)cc(NC(=O)c2cncc(-c3ccc(Cl)cc3)c2)c1	II
O=C(NCc1cccnc1N1CCOCC1)c1cncc(-c2ccc(Cl)cc2)c1	II
